# Experimental System: 5-HT2A receptors (Mus musculus)
# Construct: from tissue; host or cells: whole living C57BL/6J mice (in vivo behavioural assay)
# Sequence (P35363 whole entry): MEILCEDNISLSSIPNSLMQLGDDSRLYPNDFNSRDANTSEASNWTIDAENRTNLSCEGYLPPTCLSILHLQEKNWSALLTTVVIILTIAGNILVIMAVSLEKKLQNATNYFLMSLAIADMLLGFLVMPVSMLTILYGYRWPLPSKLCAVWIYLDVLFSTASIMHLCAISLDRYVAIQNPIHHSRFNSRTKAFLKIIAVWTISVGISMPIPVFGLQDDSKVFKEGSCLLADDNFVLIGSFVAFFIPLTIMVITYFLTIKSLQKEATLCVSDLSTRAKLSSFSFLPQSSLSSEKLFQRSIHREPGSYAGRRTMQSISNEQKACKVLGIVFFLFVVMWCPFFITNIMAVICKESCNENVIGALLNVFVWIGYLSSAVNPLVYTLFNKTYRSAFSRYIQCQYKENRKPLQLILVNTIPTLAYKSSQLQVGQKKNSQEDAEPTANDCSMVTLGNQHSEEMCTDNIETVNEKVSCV
# Measurement Description: Psilocybin-induced head-twitch response in mice, antagonist given i.v. 7 min after psilocybin
# Type: in vivo, C57BL/6J mice
# Measurement Conditions: antagonist 1 mg/kg i.v. 7 min after psilocybin 2 mg/kg i.p.; cumulative head twitches until 40 min; groups of 3 mice
Metric: effect on psilocybin-induced head-twitch response

Consider the reported effect on psilocybin-induced head-twitch response for these molecules:
>>> val("N#Cc1c[nH]c2c(C(=O)N3CCN(CCc4ccc(F)cc4)CC3)cccc12 [pruvanserin]")
"completely suppressed"
>>> val("COc1ccc(NC(=O)Nc2ccc(F)cc2F)cc1-c1c(Br)cnn1C [nelotanserin]")
"partially suppressed"
>>> val("Cc1nc2sccn2c(=O)c1CCN1CCC(=C(c2ccc(F)cc2)c2ccc(F)cc2)CC1 [ritanserin]")
"completely suppressed"
>>> val("O=c1[nH]c2ccccc2n1CCN1CCN(c2cccc(C(F)(F)F)c2)CC1 [flibanserin]")
"partially suppressed"

Query molecule follows.
Field request: effect on psilocybin-induced head-twitch response | item: COc1cccc([C@H](O)C2CCN(CCc3ccc(F)cc3)CC2)c1OC [volinanserin]
completely suppressed
